# Test system: K. pneumoniae β13
# TEST_SUMMARY: In vitro antibacterial activity test (broth microdilution)
# Assay type: cell-based
# EXPERIMENTAL_CONTEXT: Klebsiella pneumoniae, K. pneumoniae β13; read-out: MIC90
Measured MIC90, listed per entry for reference.

COMPOUND	MIC90 / µg/mL
CC(C)(O/N=C(\C(=O)N[C@@H]1C(=O)N2C(C(=O)[O-])=C(C[n+]3cnc(NCCNC(=O)c4cc(=O)c(O)cn4O)c(N)c3)CSC12)c1csc(N)n1)C(=O)O (stereo partly drawn)	0.125
C[C@H](O/N=C(\C(=O)N[C@@H]1C(=O)N2C(C(=O)[O-])=C(/C=C/C[n+]3cnc(N)c(NCCNC(=O)c4cc(=O)c(O)cn4O)c3)CSC12)c1csc(N)n1)C(=O)O (stereo partly drawn)	0.25
